All figures here come from ChEMBL document CHEMBL1201862.

Record form. Attribute: GI50. Fill in for each entry.
Tested on: DU-145
TEST_DETAILS: NCI tumour cell line growth inhibition, 48 h
Calls of active or inactive are those of the source. Rule as the data show it: active = GI50 up to about 1.1 µM and inactive = higher.

* C=C1CC2(CC(c3ccccc3C)OC(c3ccccc3C)C2)OC1=O (configuration not stated) | 12.1 µM (inactive)
* O=C(N/N=C\c1cccc2ccccc12)Nc1ccccc1 | > 100 µM (inactive)
* COc1cccc(OC)c1C1ON=C(c2ccccc2)N1C12CC3CC(CC(C3)C1)C2 (configuration not stated) | > 100 µM (inactive)
* OC(c1cc(-c2ccc(Cl)cc2)nc2ccccc12)C1CCCCN1 (configuration not stated) | 1.74 µM (inactive)
* S=c1sc2c(s1)SCCCCSCCCCSc1sc(=S)sc1SCCCCSCCCCS2 | > 100 µM (inactive)
* Oc1c(/N=N\c2ccccc2)c2cccc3ccc4cccc1c4c32 | > 100 µM (inactive)
* CCCC(=O)NC(Nc1ccc(S(=O)(=O)Nc2nc(C)cc(C)n2)cc1)(C(F)(F)F)C(F)(F)F | > 100 µM (inactive)
* O=[N+]([O-])C(=C(Nc1ccccc1)Nc1ccccc1)/C(Cl)=C(\Cl)[N+](=O)[O-] | 2.65 µM (inactive)
* Cc1ccsc1/C=N/Nc1ccccn1 | 55.6 µM (inactive)
* Cc1ccc(S(=O)(=O)N2c3ccccc3[C@H]3CCC=C[C@H]32)cc1 | 20.3 µM (inactive)

For every record below, what is its GI50?
1. CN1CCN(C(=O)c2cn(Cc3cncn3Cc3ccc4c(c3)OCO4)cc2-c2cccc3ccccc23)CC1
2. CC(C)N(Cc1ccccc1)S(=O)(=O)c1nc(C(C)(C)C)n[nH]1
3. CC(=O)Nc1ccc(S(=O)(=O)c2nnc(NC(C)=O)s2)cc1
4. Cn1c(=O)c2c(nc3n(Cc4ccccc4)c(=O)c(NCCBr)cn23)n(C)c1=O

1: 37.4 µM (inactive); 2: > 100 µM (inactive); 3: > 100 µM (inactive); 4: 27.8 µM (inactive)

---

Tested on: EKVX
TEST_DETAILS: NCI tumour cell line growth inhibition, 48 h
Active and inactive are the calls of the source. No stated cut-off is given here; in the data, active = GI50 up to about 1.1 µM and inactive = higher.
Record form. Attribute: GI50. Fill in for each entry.

Before answering, review these 4 worked examples.
* N#Cc1c(C#N)c(-c2ccccc2)n(/N=C\c2ccccc2)c1N | 13.6 µM (inactive)
* COc1ccc(Cc2nc3cc([N+](=O)[O-])ccc3n2C[C@@H]2CCCN3CCCCC23)cc1 (stereo not given in full) | 31 µM (inactive)
* O=C1C(=C(C(F)(F)Cl)C(F)(F)Cl)C2CCC1C2 (stereo not given) | > 10 µM (inactive)
* CCCCCCCCOc1ccc(/C=C/C2=[N+](CCO)CCO2)cc1 | 3.94 µM (inactive)

Please turn your attention to the following entry.
Suppose we examine the compound CCCCn1c(O)nc2c(N)ncnc21 ; what GI50 value has been reported?
92.9 µM (inactive)

---

System: A549
TEST_DETAILS: NCI tumour cell line growth inhibition, 48 h
Active and inactive are the calls of the source. Cut-off read from the data, not from the text of the source: active = GI50 up to about 1.1 µM and inactive = higher.
QUANTITY_MEASURED: GI50

- COCN1COCN/C1=N\C#N: > 100 µM (inactive)
- C/C(=N/Nc1ccc([N+](=O)[O-])cc1[N+](=O)[O-])C(CC(C(=O)NCc1ccccc1)/C(C)=N\Nc1ccc([N+](=O)[O-])cc1[N+](=O)[O-])C(=O)NCc1ccccc1 (stereo unspecified): 4.4 µM (inactive)
- COc1cc(OC)cc(Oc2nc3ccccc3nc2C(F)(F)F)c1: > 100 µM (inactive)
- Cc1ccc(-c2n[nH]c(=O)n2NC(=O)c2ccccc2C(=O)O)cc1: > 100 µM (inactive)
- NC1CCCCC1.O=C(CP(=O)(O)O)NC(CC(=O)OCc1ccccc1)C(=O)OCc1ccccc1 (stereo unspecified): > 100 µM (inactive)

Please turn your attention to the following entry.
Suppose we examine the molecule CCOc1nc2c(N3CCCC3)nc(N3CCNCC3)nc2nc1NCc1ccccc1 ; what GI50 value has been reported?
1.74 µM (inactive)
